molecular target: Dual specificity tyrosine-phosphorylation-regulated kinase 1A (Homo sapiens, UniProt Q13627)
pKi: −log10 of the molar value.
Mark NOT MET for pKi values under 7, and MET for everything at or above.

As a guide, the following entries are already answered.
>>> discrete_label("NC(=O)c1cc2c(-c3ccc(C(=O)NCc4cccc(N)c4)s3)ccc(F)c2s1")
"NOT MET"
>>> discrete_label("NC(=O)c1cc2c(-c3ccc(C(=O)NC4CCOCC4)s3)cccc2s1")
"NOT MET"
>>> discrete_label("NC(=O)c1cc2c(-c3ccc(C(=O)NCc4cccc(Cl)c4)s3)cccc2s1")
"NOT MET"

## Input Check this compound for pKi at or above 7: NC(=O)c1cc2c(-c3ccc(C(=O)NCc4ccc(N)cc4)s3)cccc2s1
## Output MET

## Input Record: NC(=O)c1cc2c(-c3ccc(C(=O)NCc4ccccc4O)s3)cccc2s1
## Output MET

## Input Now consider NC(=O)c1cc2c(-c3ccc(C(=O)NCc4ccccc4)s3)cccc2s1 and answer again.
## Output MET

---

target: Dual specificity tyrosine-phosphorylation-regulated kinase 1B (Homo sapiens, UniProt Q9Y463)
Sequence (Q9Y463 whole entry): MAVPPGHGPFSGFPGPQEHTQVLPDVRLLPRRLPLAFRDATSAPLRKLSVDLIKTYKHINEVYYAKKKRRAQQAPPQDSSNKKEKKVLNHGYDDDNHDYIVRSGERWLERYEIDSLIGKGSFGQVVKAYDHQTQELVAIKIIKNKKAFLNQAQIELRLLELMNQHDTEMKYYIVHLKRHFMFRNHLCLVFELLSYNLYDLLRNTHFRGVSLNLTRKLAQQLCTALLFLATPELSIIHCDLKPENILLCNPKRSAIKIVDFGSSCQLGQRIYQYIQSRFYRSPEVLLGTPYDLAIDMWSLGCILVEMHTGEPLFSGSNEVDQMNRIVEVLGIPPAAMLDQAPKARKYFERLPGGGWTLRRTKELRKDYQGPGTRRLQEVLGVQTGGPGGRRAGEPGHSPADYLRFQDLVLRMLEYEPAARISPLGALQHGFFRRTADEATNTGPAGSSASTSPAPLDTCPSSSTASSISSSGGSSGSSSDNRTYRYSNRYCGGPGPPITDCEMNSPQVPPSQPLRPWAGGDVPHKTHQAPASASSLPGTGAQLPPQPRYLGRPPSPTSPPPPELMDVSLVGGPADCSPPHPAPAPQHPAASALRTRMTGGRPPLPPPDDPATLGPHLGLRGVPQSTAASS
Parameter: Ki (nM)
Provide only the numeric value, understood in nM.

## Input Entry NC(=O)c1cc2c(-c3ccc(C(=O)NC4CC4)s3)cccc2s1 has what Ki?
## Output 670

## Input Repeat with NC(=O)c1cc2c(-c3ccc(C(=O)NCCn4cc(CO)nn4)s3)cccc2s1
## Output 448

## Input Now the same for NC(=O)c1cc2c(-c3ccc(C(=O)NCC4CC4)s3)cccc2s1
## Output 980

---

The entries below are paired with their reported pKi.
biological target: Dual specificity tyrosine-phosphorylation-regulated kinase 1A (Homo sapiens)
In simple prose, pKi is minus the logarithm base ten of a concentration in moles per litre.

## Input Can you share its pKi? I mean this compound: NC(=O)c1cc2c(-c3ccc(C(=O)NCc4ccnc(Cl)c4)s3)cccc2s1
## Output 7.07

---

biological target: UniProt Q13627
# label = t if Ki < 100 nM else f

Please review the following examples before continuing.
>>> discrete_label("NC(=O)c1cc2c(-c3ccc(C(=O)NCC4CC4)s3)cccc2s1")
"t"
>>> discrete_label("NC(=O)c1cc2c(-c3ccc(C(=O)NC4CC4)s3)cccc2s1")
"f"
>>> discrete_label("NC(=O)c1cc2c(-c3ccc(C(=O)NCc4cccc(N)c4)s3)c(Cl)ccc2s1")
"t"
>>> discrete_label("NC(=O)c1cc2c(-c3cc(N)c(C(=O)NC4CC4)s3)cccc2s1")
"t"
>>> discrete_label("NC(=O)c1cc2c(-c3ccc(C(=O)NCc4cccc(N)c4)s3)cccc2s1")
"f"

## Input Is Ki strictly under 100 nM for the entry NC(=O)c1cc2c(-c3ccc(C(=O)NCc4cccc(O)c4)s3)cccc2s1 ?
## Output t

## Input And the next one, NC(=O)c1cc2c(-c3ccc(C(=O)NCc4cccc(O)c4)s3)c(Cl)ccc2s1 ?
## Output f

## Input // query: NC(=O)c1cc2c(-c3ccc(C(=O)NCc4ccccc4O)s3)c(Cl)ccc2s1
## Output t
